In this section, each of the compounds is paired with its reported normalized cell count.
Assay: inhibitors of insulin promoter-driven GFP, primary screen, imaging, TRM-6 cells (human fetal islet line), eGFP reporter, cell count (AID 1273;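 note: cells exposed to compound for 48 h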)
Conditions: at 2 µM, reporter expression induced with tamoxifen; measured here: cell count, toxicity
About 1,200 (0.92%) of roughly 130,000 compounds were called active. Only a selection was taken, and actives are over-represented in it overall.
Report the figure in % without appending any unit label.

In the examples that follow, each entry is paired with its recorded normalized cell count.
- Cc1ccc(Nc2nnc(SCc3ccccc3)s2)cc1: 9.38
- Cc1nc2scc(-c3cccs3)c2c(=O)n1N: 105
- O=[N+]([O-])c1ccc(N2CCNCC2)cc1NCc1cccnc1: 150
- O=Cc1ccc(OCc2cn3ccccc3n2)cc1: 194
- O=[N+]([O-])c1ccc(N2CCN(S(=O)(=O)c3ccc4ccccc4c3)CC2)cc1NCc1ccco1: 121
- O=C(c1ccccc1)N1CCN(c2ccc([N+](=O)[O-])c(NCc3ccco3)c2)CC1: 122

Consider NC(=O)Cc1nc2scc(-c3ccc(Cl)cc3)c2c(=O)[nH]1 . Its measured normalized cell count is 114

Per the records, this compound ( CCOC(=O)c1cc(C)sc1NC(=O)C1CCC1 ) has normalized cell count equal to 161

Value of normalized cell count reported for the compound CCC(=O)c1ccc(OCC(O)Cn2nc(C)c(C(C)=O)c2C)cc1 (centres undefined) is 57.4

Entry O=C(c1snnc1-c1ccccc1)N1CCOCC1 — recorded normalized cell count = 64.9

Entry O=C(Cc1cccc2ccccc12)NCCC1=CCCCC1 , normalized cell count reported as 92.7
